test system: WT Mtb Erdman; assay: Disk zone of inhibition assay; assay type: cell-based; conditions: Mycobacterium tuberculosis, 240 h, radius of zone absent of bacterial growth, 5 μl of 100 mM stock in DMSO on disk, Middlebrook 7H10 agar, 10 days at 37° C.
Would you mind labelling by zone of inhibition at 100000 µM (stock)? At or over 9 mm is 1, under is 0.

{"SMILES_REPR": "CCc1nc(NC2CC2)c2c(C)csc2n1", "TESTED_ON": "WT Mtb Erdman", "LABEL_VALUE": 0}
{"SMILES_REPR": "CCc1nc(NC2CC2)c2cc(C)sc2n1", "TESTED_ON": "WT Mtb Erdman", "LABEL_VALUE": 1}
{"SMILES_REPR": "CCc1nc(NCCC(C)C)c2cc(C)sc2n1", "TESTED_ON": "WT Mtb Erdman", "LABEL_VALUE": 1}
{"SMILES_REPR": "CCc1nc(NC2CC2)c2ccsc2n1", "TESTED_ON": "WT Mtb Erdman", "LABEL_VALUE": 1}

Given the entry CCc1nc(NC(C)(C)C)c2cc(C)sc2n1 , answer whether its zone of inhibition at 100000 µM (stock) meets or surpasses 9 mm.
0

---

system: WT Mtb Erdman; test: Disk zone of inhibition assay; assay type: cell-based; details: Mycobacterium tuberculosis, 240 h, radius of zone absent of bacterial growth, 5 μl of 100 mM stock in DMSO on disk, Middlebrook 7H10 agar, 10 days at 37° C.
ENDPOINT_NAME: zone of inhibition at 100000 µM (stock)

See these solved cases before continuing.
{"COMPOUND": "CCc1nc(N)c2cc(C)sc2n1 [Example 1060]", "zone of inhibition at 100000 µM (stock)": "0 mm"}
{"COMPOUND": "CCCCNc1nc(CC)nc2scc(C)c12 [Example 1699]", "zone of inhibition at 100000 µM (stock)": "6 mm"}
{"COMPOUND": "CCCCNc1nc(C)nc2c1oc1ccccc12 [Example 0927]", "zone of inhibition at 100000 µM (stock)": "10 mm"}
{"COMPOUND": "CCCCNc1nc(C(F)(F)F)nc2sccc12 [Example 1545]", "zone of inhibition at 100000 µM (stock)": "1.8 mm"}

Name the recorded zone of inhibition at 100000 µM (stock) of CCc1nc(NC2CCCC2)c2cc(C)sc2n1 [Example 0951] , assay system WT Mtb Erdman.
1 mm
